Quick list: Ki per entry.
# TARGET: DPP-4 (Homo sapiens, UniProt P27487)
# Sequence (P27487 39-766): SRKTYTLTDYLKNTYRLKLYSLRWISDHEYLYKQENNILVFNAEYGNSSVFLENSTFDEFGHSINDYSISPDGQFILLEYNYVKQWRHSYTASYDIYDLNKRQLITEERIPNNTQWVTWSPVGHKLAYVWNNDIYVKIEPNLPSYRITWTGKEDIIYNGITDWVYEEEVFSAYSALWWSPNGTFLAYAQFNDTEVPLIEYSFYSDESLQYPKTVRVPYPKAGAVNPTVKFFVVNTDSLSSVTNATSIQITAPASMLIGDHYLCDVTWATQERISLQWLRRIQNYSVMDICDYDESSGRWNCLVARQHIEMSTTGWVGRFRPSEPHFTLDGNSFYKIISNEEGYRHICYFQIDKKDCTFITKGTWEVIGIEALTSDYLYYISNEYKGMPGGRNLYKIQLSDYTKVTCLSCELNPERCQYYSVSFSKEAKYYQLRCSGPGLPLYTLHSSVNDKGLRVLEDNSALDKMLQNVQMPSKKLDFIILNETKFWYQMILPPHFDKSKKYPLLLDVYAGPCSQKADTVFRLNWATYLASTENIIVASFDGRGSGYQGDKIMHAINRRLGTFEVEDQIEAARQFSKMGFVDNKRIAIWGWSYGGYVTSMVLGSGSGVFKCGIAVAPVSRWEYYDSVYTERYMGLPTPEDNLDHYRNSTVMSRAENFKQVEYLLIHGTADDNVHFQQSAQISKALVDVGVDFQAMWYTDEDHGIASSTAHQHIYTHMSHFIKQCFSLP
# PROTOCOL_NOTES: Inhibition of DPP-4 activity against Ala-Pro-AFC by P2-Pro-AMCC compounds
# Assay type: biochemical
# Set-up: DPP-4 (amino acids 39-766); FLAG (N); made in house; host or cells: 293 cells (secreted, purified from serum-free conditioned media)
# Protocol: Inhibition of FAP and DPP-4 activity against Ala-Pro-AFC by P2-Pro-AMCC compounds was measured at various concentration of the P2-Pro-AMCC compounds in Table 7.

Exercise: Quick one: Ki for NCCC(=O)O ?
Solution: 2000 nM

Exercise: Fill blank: measured Ki of the compound CC(=O)NC(C)C(=O)N1CCCC1C(=O)Nc1ccc2c(C)c(CC(N)=O)c(=O)oc2c1 (stereo not drawn) is ____.
Solution: > 2000 nM

Exercise: So what does the record say about Ki for CC(=O)NC(CO)C(=O)N1CCCC1C(=O)Nc1ccc2c(C)c(CC(N)=O)c(=O)oc2c1 (stereo not drawn) ?
Solution: > 2000 nM

// provenance: patent US7399869B2
